# Tested on: DU-145 prostate
# ASSAY_PROTOCOL: NCI-60 one-dose screen, 48 h
# CONDITION_DETAILS: 10 µM unless noted
This is part of a sample that, as a whole, favours compounds with a hit. Of some 83,000 tested, about 20% had one in any assay. Calls of active or inactive are those of the source. How the source made its calls: active means growth percent below 10; inactive means the rest.
Answer with one of the outcomes given here: active, inactive

// below: answered molecules
MOLECULE	LABEL_CLASS
Nc1ccccc1-c1ccn[nH]1	inactive
O=c1[nH]cc(Nc2cc(Cl)c3nonc3c2[N+](=O)[O-])c(=O)[nH]1	inactive
O=C1/C=C/[C@@H](O)[C@@H]2C[C@@H](O)C[C@H]2/C=C/CCC[C@H](CO)O1	inactive

Req: Outcome logged for CC(NC(N)=S)c1ccccc1 (stereo unspecified) in this assay:
Resp: inactive

Req: State the result this test recorded for N#Cc1ccc(-c2csc(Nc3ccc4nc5n(c(=O)c4c3)CCC5)n2)cc1 .
Resp: inactive

Req: Record lookup: outcome of this test for CCCCCc1c(C)[nH]c(/C=C2\N=C(c3ccc[nH]3)C=C2Oc2ccc(Cl)cc2)c1C ?
Resp: active

Req: I would be grateful if you could indicate the recorded call for CC1c2ccccc2-c2ccccc2N1C (stereo unspecified) .
Resp: inactive

Req: Short answer needed: outcome of this test for COc1ccc(C2=NN(C(C)=O)C(c3cccc(Nc4ccnc5cc(Cl)ccc45)c3)C2)cc1 (stereo unspecified) ?
Resp: inactive

Req: Hey, what did the test say about COc1cnc2c(c1)C(=O)c1c-2n(CCCNC(C)C)c(=O)c2cc(F)ccc12 ?
Resp: active
